target-entity: COX-1/COX-2 (Homo sapiens) (UniProt P35354+P23219)
test-summary: Selectivity ratio of IC50 for human COX-1 to IC50 for human COX-2
experimental-endpoint: Ratio IC50

// solved cases for Ratio IC50 follow
What value of measured Ratio IC50 is listed for O=C(O)C1=Cc2cc(Cl)c(Cl)c(Cl)c2OC1C(F)(F)F (configuration not stated) ? 63

What value of measured Ratio IC50 is listed for O=C(O)C1=Cc2c(Cl)ccc(Cl)c2OC1C(F)(F)F (configuration not stated) ? 110

[a] O=C(O)C1=Cc2cc(Cl)c(Cl)cc2OC1C(F)(F)F (configuration not stated)
[b] O=C(O)C1=Cc2c(cc(Cl)c(Cl)c2Cl)OC1C(F)(F)F (configuration not stated)
[c] O=C(O)C1=Cc2c(Cl)cc(Cl)cc2OC1C(F)(F)F (configuration not stated)
[d] O=C(O)C1=Cc2ccc(Cl)c(Cl)c2OC1C(F)(F)F (configuration not stated)
[e] O=C(O)C1=Cc2cc(Cl)ccc2OC1C(F)(F)F (configuration not stated)
Hey, quick one: sort these by Ratio IC50, low to high? Use the labels to give the ranking in the order requested. d, c, e, b, a

* * *

target-entity: Prostaglandin G/H synthase 1 (Homo sapiens)
Sequence (P23219 whole entry): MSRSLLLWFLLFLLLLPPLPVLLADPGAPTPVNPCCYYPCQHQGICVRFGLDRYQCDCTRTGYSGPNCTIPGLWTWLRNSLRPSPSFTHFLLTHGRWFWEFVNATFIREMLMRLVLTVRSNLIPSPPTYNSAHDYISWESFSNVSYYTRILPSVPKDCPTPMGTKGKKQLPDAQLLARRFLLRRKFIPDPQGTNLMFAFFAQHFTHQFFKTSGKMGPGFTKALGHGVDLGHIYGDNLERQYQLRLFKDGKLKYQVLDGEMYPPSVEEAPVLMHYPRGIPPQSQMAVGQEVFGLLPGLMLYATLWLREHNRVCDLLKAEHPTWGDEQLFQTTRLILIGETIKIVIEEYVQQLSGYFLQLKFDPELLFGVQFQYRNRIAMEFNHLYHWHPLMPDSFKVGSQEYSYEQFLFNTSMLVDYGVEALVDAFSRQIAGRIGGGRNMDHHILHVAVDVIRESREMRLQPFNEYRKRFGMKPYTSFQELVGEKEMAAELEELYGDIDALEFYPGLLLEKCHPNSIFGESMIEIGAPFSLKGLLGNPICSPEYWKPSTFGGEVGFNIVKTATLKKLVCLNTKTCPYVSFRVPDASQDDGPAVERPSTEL
test-summary: Inhibition of human COX-1
experimental-endpoint: IC50 (µM)

What value of measured IC50 is listed for O=C(O)C1=Cc2c(Cl)cc(Cl)cc2OC1C(F)(F)F (centres undefined) ? 145

[I] O=C(O)C1=Cc2cc(Cl)cc(-c3ccccc3)c2OC1C(F)(F)F (centres undefined)
[II] O=C(O)C1=Cc2cc(Cl)ccc2OC1C(F)(F)F (centres undefined)
I'm curious whether I or II has the smaller IC50 number. Which is it? Answer with the label corresponding to your selection. I
(I: 3.11 µM, II: 29.2 µM)

* * *

test-summary: Half life in dog
Type: ADME, organism-based, Canis lupus familiaris
applied-conditions: in vivo
experimental-endpoint: half-life (h)
API: value field is a number in h; no unit string.

What value of measured half-life is listed for O=C(O)C1=Cc2cc(Cl)cc(Cl)c2O[C@@H]1C(F)(F)F ? 20.4

* * *

test-summary: Half life in rat
Assay type: ADME, organism-based
applied-conditions: in vivo
experimental-endpoint: half-life (h)
API: value field is a number in h; no unit string.

What value of measured half-life is listed for O=C(O)C1=Cc2cc(Cl)cc(Cl)c2O[C@@H]1C(F)(F)F ? 10.1

* * *

target-entity: Prostaglandin G/H synthase 2 (Homo sapiens, UniProt P35354)
Sequence (P35354 whole entry): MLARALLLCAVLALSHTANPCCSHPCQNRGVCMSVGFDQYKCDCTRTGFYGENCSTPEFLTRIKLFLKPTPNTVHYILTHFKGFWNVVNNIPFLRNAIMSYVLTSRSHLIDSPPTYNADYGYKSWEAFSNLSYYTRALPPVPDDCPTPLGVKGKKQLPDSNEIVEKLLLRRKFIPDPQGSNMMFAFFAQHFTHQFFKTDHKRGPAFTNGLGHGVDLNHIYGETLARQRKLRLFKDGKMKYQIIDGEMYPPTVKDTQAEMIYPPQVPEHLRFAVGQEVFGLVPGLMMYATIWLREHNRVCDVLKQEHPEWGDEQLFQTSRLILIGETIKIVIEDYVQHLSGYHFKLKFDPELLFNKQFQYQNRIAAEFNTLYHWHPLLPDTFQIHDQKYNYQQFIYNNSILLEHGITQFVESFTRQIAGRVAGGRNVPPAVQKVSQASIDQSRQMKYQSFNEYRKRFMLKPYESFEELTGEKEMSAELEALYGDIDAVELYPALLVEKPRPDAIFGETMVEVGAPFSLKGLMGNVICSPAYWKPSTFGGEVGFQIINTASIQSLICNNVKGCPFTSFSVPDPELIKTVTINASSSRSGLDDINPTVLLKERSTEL
experimental-endpoint: IC50 (nM)

What value of measured IC50 is listed for O=C(O)C1=Cc2c(Cl)cc(Cl)cc2OC1C(F)(F)F (stereo not given) ? 12000

What value of measured IC50 is listed for O=C(O)C1=Cc2cc(Cl)cc(C#Cc3ccccc3)c2OC1C(F)(F)F (stereo not given) ? 140

What value of measured IC50 is listed for C#Cc1cc(Cl)cc2c1OC(C(F)(F)F)C(C(=O)O)=C2 (stereo not given) ? 43

[I] O=C(O)C1=Cc2cc(Cl)c(Cl)c(Cl)c2OC1C(F)(F)F (stereo not given)
[II] O=C(O)C1=Cc2cc(Cl)ccc2OC1C(F)(F)F (stereo not given)
# argmax over IC50 for candidates I and II Answer with the label corresponding to your selection. II
